# study.target: hOT7T175 (Homo sapiens, UniProt Q969F8, L364H)
# Construct: expressed in transfected cells
# Sequence (Q969F8 whole entry L364H): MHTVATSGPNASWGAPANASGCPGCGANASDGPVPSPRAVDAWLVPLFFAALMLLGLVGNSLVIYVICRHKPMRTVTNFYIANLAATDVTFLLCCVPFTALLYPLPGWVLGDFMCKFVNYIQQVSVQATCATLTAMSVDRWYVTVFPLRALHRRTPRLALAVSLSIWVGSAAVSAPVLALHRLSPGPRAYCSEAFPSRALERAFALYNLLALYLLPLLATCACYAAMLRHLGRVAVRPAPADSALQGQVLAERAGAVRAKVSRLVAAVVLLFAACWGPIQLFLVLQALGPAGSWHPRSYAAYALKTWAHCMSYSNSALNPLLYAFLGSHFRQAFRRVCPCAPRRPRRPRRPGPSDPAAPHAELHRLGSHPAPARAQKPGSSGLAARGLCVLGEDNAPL
# Format: cell-based
# condition.notes: hOT7T175/CHO, FLIPR, evaluation for 40 seconds after initiation of the reaction
Non-standard residues stand in square brackets, D forms with d. Arg(Me) = CNC(=N)NCCC[C@H](N)C(=O)O; Aib = CC(C)(N)C(=O)O; azaGly = NNC(=O)O
endpoint.label: Specific Act. (EC50/MS10 EC50)
One number for each entry.

Solved entries (count: 8):
substance: Ac-D-Tyr-D-Trp-Asn-Thr-PheΨ(CH2NH)Gly-Leu-Arg(Me)-Trp-NH2 [Compound No. 569]
Specific Act. (EC50/MS10 EC50): 0.5
//
substance: D-Nle-Acp-D-Tyr-D-Trp-Asn-Thr-Phe-AzaGly-Leu-Arg(Me)-Trp-NH2 [Compound No. 553]
Specific Act. (EC50/MS10 EC50): 1.9
//
substance: Ac-D-Tyr-D-Trp-Asn-Thr-Phe-AzaGly-Leu-Arg(Me2)asym-Trp-NH2 [Compound No. 607]
Specific Act. (EC50/MS10 EC50): 2.2
//
substance: 3-Phenylpropionyl-Asn-Hyp-Phe-AzaGly-Leu-Arg(Me)-Trp-NH2 [Compound No. 517]
Specific Act. (EC50/MS10 EC50): 1.0
//
substance: Ac-D-Tyr-D-Trp-Asn-Thr-Phe-AzaGly-Gln-Arg(Me)-Trp-NH2 (Ac-[dY][dW]NTF[azaGly]Q[Arg(Me)]W-NH2; SMILES CNC(=N)NCCC[C@H](NC(=O)[C@H](CCC(N)=O)NC(=O)NNC(=O)[C@H](Cc1ccccc1)NC(=O)[C@@H](NC(=O)[C@H](CC(N)=O)NC(=O)[C@@H](Cc1c[nH]c2ccccc12)NC(=O)[C@@H](Cc1ccc(O)cc1)NC(C)=O)[C@@H](C)O)C(=O)N[C@@H](Cc1c[nH]c2ccccc12)C(N)=O) [Compound No. 682]
Specific Act. (EC50/MS10 EC50): 7.3
//
substance: H-YNWNSFGLRW-NH2 [Compound No. 134]
Specific Act. (EC50/MS10 EC50): 0.5
//
substance: Ac-D-Tyr-D-Trp-Asn-Thr-Phe-Gly-Aib-Arg(Me)-Trp-NH2 (Ac-[dY][dW]NTFG[Aib][Arg(Me)]W-NH2; SMILES CNC(=N)NCCC[C@H](NC(=O)C(C)(C)NC(=O)CNC(=O)[C@H](Cc1ccccc1)NC(=O)[C@@H](NC(=O)[C@H](CC(N)=O)NC(=O)[C@@H](Cc1c[nH]c2ccccc12)NC(=O)[C@@H](Cc1ccc(O)cc1)NC(C)=O)[C@@H](C)O)C(=O)N[C@@H](Cc1c[nH]c2ccccc12)C(N)=O) [Compound No. 700]
Specific Act. (EC50/MS10 EC50): 0.8
//
substance: D-Tyr-D-Pya(4)-Asn-Ile-Phe-AzaGly-Leu-Arg(Me)-Trp-NH2 [Compound No. 498]
Specific Act. (EC50/MS10 EC50): 1.5

For every record below, what is its Specific Act. (EC50/MS10 EC50)?
1. D-Tyr-D-Pya(4)-Asn-Ser-Phe-AzaGly-Leu-Arg(Me)-Trp-NH2 [Compound No. 385]
2. D-Tyr-D-Pya(4)-Asn-Phg-Phe-AzaGly-Leu-Arg(Me)-Trp-NH2 [Compound No. 530]
3. D-Tyr-D-Pya(4)-Asn-Ser-Phe-AzaGly-Leu-Arg-Phe-NH2 [Compound No. 521]
4. Ac-D-Tyr-D-Pya(4)-Asn-Ser-Phe-AzaGly-Leu-Arg(Me)-Phe-NH2 [Compound No. 516]
5. Cyclopropanecarbonyl-D-Tyr-D-Trp-Asn-Thr-Phe-AzaGly-Leu-Arg(Me)-Trp-NH2 [Compound No. 566]
6. D-Tyr-Pya(4)-Asn-Ser-Phe-AzaGly-Leu-Arg(Me)-Phe-NH2 [Compound No. 490]
7. D-Tyr-D-Pya(4)-Thr-Ser-Phe-AzaGly-Leu-Arg(Me)-Trp-NH2 [Compound No. 493]
8. Ac-D-Tyr-D-Pya(4)-Asn-Thr-Phe-AzaGly-Leu-Arg(Me)-Phe-NH2 [Compound No. 685]

Result:
0.7
3.4
2.4
3.7
0.8
6.2
2.2
4.8
